B1: CPEB3 Ribozyme (parent)
chain: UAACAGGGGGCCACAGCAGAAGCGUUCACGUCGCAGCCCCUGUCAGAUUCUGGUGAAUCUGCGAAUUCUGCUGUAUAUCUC

# Variants of: B1
# procedure text: self-cleavage, relative activity (ratio to wild type); higher = more cleavage; in vitro, sequencing
Each record here notes measured self-cleavage.
Enter the number alone.

C4U A21G    0.89

// sample A5G C62G , its self-cleavage was 0.14

// sample U49C A65G , its self-cleavage was 0.26

// sample G30C A45U , its self-cleavage was 0.09

// sample U43A U51A , its self-cleavage was 0.97
